Target: T1, human IL4 (human, UniProt P05112 25-153, biotinylated in the SPR and competition assays (sites not given))
T1 sequence: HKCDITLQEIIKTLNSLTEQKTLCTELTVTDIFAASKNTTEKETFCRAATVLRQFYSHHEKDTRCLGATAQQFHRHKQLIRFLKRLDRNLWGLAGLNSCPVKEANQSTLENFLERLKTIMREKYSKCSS
Assay: cell-based or functional assay
OBSERVABLE: HEK Stat6 Inhibition IC50 (pM)

INSERT INTO results (binder, observable, quantity_unit, observed) VALUES
  ('C06_24H1 (designed binder, ankyrin repeat protein; His-tagged, IMAC-purified) DLGKKLLEAARAGQDDEVRILMANGADVNAHDNSGFTPLHLAAEIGHLEIVEVLLKYGADVNAADRMGDTPLHLAAFVGHLEIVEVLLKYGADVNAVDLAGVTPLHVAAFYGHLEIVEVLLKNGADVNAQDKFGKTAFDISIDNGNEDLAEILQKLN', 'HEK Stat6 Inhibition IC50', 'pM', 241),
  ('C06_19C3 (designed binder, ankyrin repeat protein; His-tagged, IMAC-purified) DLGKKLLEAARAGQDDEVRILMANGADVNATDDWGDTLLHLAATDGHLEIVEVLLKNGADVNAIDAMGMTPLHLAAVYGYLEIVEVLLKNGADVNAMDFSGFTPLHLAAFSGHLEIVEVLLKYGADVNAQDKFGKTAFDISIDNGNEDLAEILQKLN', 'HEK Stat6 Inhibition IC50', 'pM', 1.5),
  ('C06_4A7 (designed binder, ankyrin repeat protein; His-tagged, IMAC-purified) DLGKKLLEAARAGQDDEVRILMANGADVNAEDDWGLTPLHLAAMLGHLEIVEVLLKYGADVNAKDDTGFTPLHLAAVEGHLEIVEVLLKYGADVNASDILGRTPLHLAANFGHLEIVEVLLKYGADVNAQDKFGKTAFDISIDNGNEDLAEILQKLN', 'HEK Stat6 Inhibition IC50', 'pM', 444);
